Below, each entry is listed alongside its reported pIC50.
- systemUnderTest: CDK1/B (Homo sapiens)
- Sequence (P06493 whole entry): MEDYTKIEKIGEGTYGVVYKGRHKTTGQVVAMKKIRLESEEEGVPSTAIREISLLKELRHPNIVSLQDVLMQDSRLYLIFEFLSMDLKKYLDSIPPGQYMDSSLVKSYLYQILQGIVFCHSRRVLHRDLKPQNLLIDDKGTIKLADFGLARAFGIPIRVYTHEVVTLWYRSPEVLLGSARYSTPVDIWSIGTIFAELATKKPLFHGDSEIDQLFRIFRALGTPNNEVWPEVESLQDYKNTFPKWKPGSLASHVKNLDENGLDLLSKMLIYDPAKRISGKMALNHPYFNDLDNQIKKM
- Sequence (P14635 whole entry partner): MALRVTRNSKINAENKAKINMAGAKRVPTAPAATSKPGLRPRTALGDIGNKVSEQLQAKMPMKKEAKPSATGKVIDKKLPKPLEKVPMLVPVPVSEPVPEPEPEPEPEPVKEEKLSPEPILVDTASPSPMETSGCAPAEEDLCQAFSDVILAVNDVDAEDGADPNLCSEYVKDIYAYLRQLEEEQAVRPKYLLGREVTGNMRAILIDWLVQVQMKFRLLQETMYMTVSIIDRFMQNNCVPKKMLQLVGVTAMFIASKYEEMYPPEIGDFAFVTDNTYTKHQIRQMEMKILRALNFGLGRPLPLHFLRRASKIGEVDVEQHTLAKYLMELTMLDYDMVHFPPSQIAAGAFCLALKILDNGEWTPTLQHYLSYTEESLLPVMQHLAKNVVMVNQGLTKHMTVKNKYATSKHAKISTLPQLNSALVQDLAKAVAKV
- protocolNotes: Additional inhibition assay, CDK1/B
- Type: biochemical
- testSettings: Table 3a
Scale: negative log10 of molar concentration, which is what pIC50 denotes.

Past entries and their recorded results:
{"compound": "CN1CCN(c2ccc(Nc3ncc4c(n3)N(C3CCCC3)C3(CC(=O)NC3=O)C4)cc2)CC1 (single isomer, unassigned) [Compound C137]", "systemUnderTest": "CDK1/B (Homo sapiens)", "resultNumber": 5.78}
{"compound": "CN(C)[C@H]1CCN(c2ccc(Nc3ncc4c(n3)N(C3CCCC3)C3(CCNC3=O)C4)cc2F)C1 (stereo partly drawn) [Compound C173]", "systemUnderTest": "CDK1/B (Homo sapiens)", "resultNumber": 5.08}
{"compound": "CN(C)CCOc1ccc(Nc2ncc3c(n2)N(C2CCCC2)C2(CCNC2=O)C3)cc1 (stereo not drawn) [Compound C108]", "systemUnderTest": "CDK1/B (Homo sapiens)", "resultNumber": 5.20}
{"compound": "CN1CCN(c2ccc(Nc3ncc4c(n3)N(C3CCCC3)C3(CCNC3=O)C4)cn2)CC1 (stereo not drawn) [Compound C129]", "systemUnderTest": "CDK1/B (Homo sapiens)", "resultNumber": 5.07}

Please look at this compound and report its pIC50: CN(C)[C@@H]1CCN(C(=O)c2ccc(Nc3ncc4c(n3)N(C3CCCC3)C3(CCNC3=O)C4)cc2)C1 (stereo partly drawn) [Compound C181] 5.45

Please look at this compound and report its pIC50: CC(C)N1CCN(c2ccc(Nc3ncc4c(n3)N(C3CCCC3)C3(CC(=O)NC3=O)C4)cc2)CC1 (stereo not drawn) [Compound C134] 5.75

Please look at this compound and report its pIC50: O=C1NCCC12Cc1cnc(Nc3ccc(N4CCC(N5CCOCC5)CC4)c(F)c3)nc1N2C1CCCC1 (stereo not drawn) [Compound C132] 5.16
